# System: Staphylococcus aureus MRSA (COL)
# assay method text: broth microdilution MIC assay, Staphylococcus aureus MRSA (COL)
# Format: cell-based
# run parameters: Staphylococcus aureus, MRSA; MIC100 class score, broth microdilution, 24 h; read-out: Antibacterial activity Staphylococcus aureus (MRSA)
reported property: MIC

Value of measured MIC for the entry Cc1[nH]c(-c2ccc(-c3ccc(Cl)c(C(F)(F)F)c3)o2)nc1-c1ccccc1 [Compound 39] : 3 to 10 µg/mL

MIC reported for this compound Cc1[nH]c(-c2ccc(-c3ccc(C(F)(F)F)cc3)o2)nc1-c1ccccc1 [Compound 45] : 3 to 10 µg/mL

For reference, reported MIC for Cc1nc(-c2ccc(-c3ccc(Cl)cc3Cl)o2)[nH]c1-c1ccccc1 [Compound 1] stands at 1 to 3 µg/mL

Measured MIC of CN(C)Cc1[nH]c(-c2ccc(-c3ccccc3C(F)(F)F)o2)nc1-c1ccccc1 [Compound 70] : 20 to 50 µg/mL

Reported MIC ( Cc1nc(-c2ccc(-c3cccc(OC(F)(F)F)c3)o2)[nH]c1-c1ccccc1 [Compound 34] ) = 1 to 3 µg/mL

----------
# System: Staphylococcus aureus MSSA (Newman)
# assay method text: broth microdilution MIC assay, Staphylococcus aureus MSSA (Newman)
# Type: cell-based
# run parameters: Staphylococcus aureus, 24 h, read-out: Antibacterial activity Staphylococcus aureus (MSSA)
reported property: MIC

Form field MIC, entry "Cc1nc(-c2ccc(-c3ccc(Cl)cc3Cl)o2)[nH]c1-c1ccccc1" : 1 to 3 µg/mL

The compound listed as "Cc1nc(-c2ccc(-c3cccc(O)c3)o2)[nH]c1-c1ccccc1" has a reported MIC of 11 to 201 µg/mL

Short answer for "Cc1nc(-c2ccc(-c3ccc4[nH]ccc4c3)o2)[nH]c1-c1ccccc1" : MIC was 3 to 10 µg/mL

The compound listed as "Cc1[nH]c(-c2cnn(-c3ccc(F)cc3)c2)nc1-c1ccccc1" has a reported MIC of 20 to 50 µg/mL

Memo: "Cc1[nH]c(-c2ccc(-c3ccc(OC(F)(F)F)c(Cl)c3)o2)nc1-c1ccc(Cl)cc1" , reported MIC: 3 to 10 µg/mL

Field MIC (entry Cc1nc(-c2ccc(-c3cc(F)ccc3C(F)(F)F)o2)[nH]c1-c1ccccc1 [Compound 31a] ) reads 20 to 50 µg/mL

Reported MIC for "Cc1[nH]c(-c2ccc(-c3ccc(C(F)(F)F)cc3)o2)nc1-c1ccccc1" was 3 to 10 µg/mL

Value of measured MIC for the entry "Cc1nc(-c2ccc(-c3ccc4occc4c3)o2)[nH]c1-c1ccccc1" : 3 to 10 µg/mL

The compound listed as "Cc1nc(-c2ccc(-c3ccccc3O)o2)[nH]c1-c1ccccc1" shows MIC equal to 11 to 201 µg/mL

// MIC lookup, compound = "Cc1nc(-c2ccc(-c3cccc(C(F)(F)F)c3)o2)[nH]c1-c1ccccc1" , result: 1 to 3 µg/mL

Entry "Cc1nc(-c2ccc(-c3cccc(OC(F)(F)F)c3)o2)[nH]c1-c1ccccc1" — recorded MIC = 1 to 3 µg/mL

// field: MIC; key: "Cc1nc(-c2ccc(-c3ccc(Cl)cc3)o2)[nH]c1-c1ccccc1" ; value = 1 to 3 µg/mL

Quick note, MIC for "Cc1nc(-c2ccc(-c3ccc(Cl)cc3C(F)(F)F)o2)[nH]c1-c1ccccc1" landed at 1 to 3 µg/mL

Sure, the documented MIC for "Cc1nc(-c2ccc(-c3ccc(O)c(Cl)c3)o2)[nH]c1-c1ccccc1" is 3 to 10 µg/mL

# compound "Cc1[nH]c(-c2ccc(-c3ccc(Cl)c(C(F)(F)F)c3)o2)nc1-c1ccccc1" ; its MIC = 3 to 10 µg/mL

Lab note: measured MIC of "Cc1nc(-c2ccc(-c3ccc(O)c(C(F)(F)F)c3)o2)[nH]c1-c1ccccc1" was 3 to 10 µg/mL

Memo: "Cc1nc(-c2ccc(-c3ccc(O)cc3C(F)(F)F)o2)[nH]c1-c1ccccc1" , reported MIC: 1 to 3 µg/mL
